cytotoxicity at 10 µM values by entry
experiment: Toxicity liver stage against HepG2, at 10uM; type: cell-based; set-up: test concentration 10 uM, cell line HepG2-A16-CD81EGFP; details: human, HepG2-A16-CD81EGFP cells; read-out: INHIBITION

- compound: "Cc1cnc(C(=O)N[C@H]2CN(CCS(C)(=O)=O)C[C@@H]2C2CC2)cn1"
  cytotoxicity at 10 µM, %: 17.6
- compound: "C[C@@H]1CN(c2nc3c(cc2C(N)=O)CCC3)C[C@]1(C)O"
  cytotoxicity at 10 µM, %: -0.112
- compound: "CCOc1nc2cnccc2n(CC(=O)NCc2ccc(C)cc2)c1=O"
  cytotoxicity at 10 µM, %: -0.0308
- compound: "O=C(NCCn1ccnc1-c1cc2n(n1)CCNC2)c1ccc(F)cc1"
  cytotoxicity at 10 µM, %: -16.9
- compound: "CC(CN1CCCC1=O)NC(=O)c1cc(=O)[nH]c2ccc(Cl)cc12 (stereo unspecified)"
  cytotoxicity at 10 µM, %: -7.14
- compound: "Cc1noc([C@H]2C[C@H]3CN(C(=O)Cc4ccsc4)CC[C@H]3O2)n1"
  cytotoxicity at 10 µM, %: -1.68
- compound: "Cc1noc(OCc2csc(C)n2)n1"
  cytotoxicity at 10 µM, %: -2.54
- compound: "CC(C)CCN(C(=O)c1cccc(NC(N)=O)c1)C1CC1"
  cytotoxicity at 10 µM, %: -6.46
- compound: "CNC(=O)c1cccc(NC(=O)NC(C)CCc2cccn2C)c1C (stereo unspecified)"
  cytotoxicity at 10 µM, %: -1.39
- compound: "CC(C)c1nc(C2CCCN2C(=O)c2cnns2)no1 (stereo unspecified)"
  cytotoxicity at 10 µM, %: -6.8
- compound: "Cc1noc(CNC(=O)CN(C)c2nc3ccccc3s2)n1"
  cytotoxicity at 10 µM, %: -2.43
- compound: "Cc1cnccc1CNCc1ccc(OC23CCCN(CC2)C3)cc1 (stereo unspecified)"
  cytotoxicity at 10 µM, %: -12.3
- compound: "O=C(Nc1ccccc1CCc1ccccn1)NC1CCOCC1"
  cytotoxicity at 10 µM, %: 6.1
- compound: "O=C(NCCn1ccnc1)N1CCN(Cc2cccnc2)CC1"
  cytotoxicity at 10 µM, %: -4.64
- compound: "COc1ccc(Oc2nccc3occc23)cc1CN1CCCC1"
  cytotoxicity at 10 µM, %: -24.6
- compound: "CC[C@H]1CN2CC[C@H]1C[C@@H]2CNCc1ccc(OC(F)(F)F)cc1"
  cytotoxicity at 10 µM, %: -0.785
- compound: "CC[C@H](C)[C@H](N)C(=O)N1CC(=O)c2sc(NC3CCCCC3)nc2C1"
  cytotoxicity at 10 µM, %: -13.7
- compound: "CCn1cncc1Cn1cccc(C(F)(F)F)c1=O"
  cytotoxicity at 10 µM, %: -20.7
- compound: "COc1ccccc1C(=O)N1CC(=O)N(CC(C)C)CC(O)C1 (stereo unspecified)"
  cytotoxicity at 10 µM, %: 4.37
- compound: "CC(C)c1nc2cc(NC(=O)Cn3ccccc3=O)ccc2o1"
  cytotoxicity at 10 µM, %: -17.8
- compound: "Cn1nnnc1SCCNC(=O)C1CCN(C(=O)C2CCCC2)CC1"
  cytotoxicity at 10 µM, %: -11.8

* * *

assay: Toxicity liver stage against HepG2, at 10uM; type: cell-based; parameters: test concentration 10 uM, cell line HepG2-A16-CD81EGFP; conditions: human, HepG2-A16-CD81EGFP cells; read-out: INHIBITION

- compound: "Cc1cc(C)nc(Nc2cccc(C3CCCN(S(C)(=O)=O)C3)n2)n1 (stereo unspecified)"
  uom: "%"
  cytotoxicity at 10 µM: -9.62
- compound: "O=C(Cc1csc(-c2ccco2)n1)N1CCN(c2cnccn2)CC1"
  uom: "%"
  cytotoxicity at 10 µM: 0.0241
- compound: "O=C1CC(c2ccncc2)C2(CCN(C(=O)c3cccc(F)c3)CC2)N1 (stereo unspecified)"
  uom: "%"
  cytotoxicity at 10 µM: -74.4
- compound: "CCCNc1nc(CS(=O)(=O)c2ccccc2)cs1"
  uom: "%"
  cytotoxicity at 10 µM: 0.939
- compound: "CCn1cc(CN2CCN(C(=O)c3cc(Br)cs3)CC2)c(C)n1"
  uom: "%"
  cytotoxicity at 10 µM: 4.95
- compound: "Cc1noc(C(C)N(C)CC(=O)NCCc2ccc(Cl)cc2)n1 (stereo unspecified)"
  uom: "%"
  cytotoxicity at 10 µM: 10.3
- compound: "Cc1ccc(CN2CCOC3(COCCN(C(C)C)C3)C2)s1 (stereo unspecified)"
  uom: "%"
  cytotoxicity at 10 µM: -0.82
- compound: "N#Cc1ncn(CCS(=O)(=O)c2ccc(Cl)cc2)n1"
  uom: "%"
  cytotoxicity at 10 µM: -6.74
- compound: "CNc1cc(C2CCCN2Cc2ccccc2OCC(=O)O)ccn1 (stereo unspecified)"
  uom: "%"
  cytotoxicity at 10 µM: -0.645
- compound: "O=C(CN1CCCc2sccc2C1=O)NC1CCc2nccn2C1 (stereo unspecified)"
  uom: "%"
  cytotoxicity at 10 µM: 16.1
- compound: "N#Cc1ccccc1C(=O)N1CCC2(CC(=O)NC2=O)C1 (stereo unspecified)"
  uom: "%"
  cytotoxicity at 10 µM: -19.6
- compound: "Cc1cc(-c2cnc(N3CCC(O)CC3)nc2-c2cccnc2C)on1"
  uom: "%"
  cytotoxicity at 10 µM: -25.2
- compound: "O=c1[nH]cc(N2CCCCCC2)c(=O)[nH]1"
  uom: "%"
  cytotoxicity at 10 µM: 3.46
- compound: "CN(C)C(=O)CS(=O)(=O)Cc1cc(Cl)c2c(c1)OCO2"
  uom: "%"
  cytotoxicity at 10 µM: -6.24
- compound: "CC(C)C[C@@H](CO)n1cc(-c2cnc(-c3ccco3)nc2)nn1"
  uom: "%"
  cytotoxicity at 10 µM: -0.662
- compound: "CS(=O)(=O)NCc1noc2c1CN(C(=O)C1CCC1)CC2"
  uom: "%"
  cytotoxicity at 10 µM: -105
- compound: "CC(C)C(=O)N1CCCC2(CC(C(=O)NCc3cccnc3)=NO2)C1 (stereo unspecified)"
  uom: "%"
  cytotoxicity at 10 µM: -2.77
- compound: "O=C(Cn1ncc(N2CCCC2)cc1=O)Nc1ccc2nccnc2c1"
  uom: "%"
  cytotoxicity at 10 µM: 1.83
- compound: "Cc1nn(C)c(Cl)c1CNCc1ccc(OCC(N)=O)cc1"
  uom: "%"
  cytotoxicity at 10 µM: 1.08
- compound: "CN(Cc1nnc2ccccn12)C(=O)CCNC(=O)C(C)(C)C"
  uom: "%"
  cytotoxicity at 10 µM: 12.5
- compound: "Cc1cccc(-c2ncc(CNC(C)CO)cn2)c1 (stereo unspecified)"
  uom: "%"
  cytotoxicity at 10 µM: 2.16
- compound: "COc1ccc(CNc2cccnc2-n2cccn2)cc1OC"
  uom: "%"
  cytotoxicity at 10 µM: 7.25
- compound: "COc1ccc(C(C)NCc2cccs2)cc1Cn1cccn1 (stereo unspecified)"
  uom: "%"
  cytotoxicity at 10 µM: 10.2
- compound: "OC1CCN(c2ccccc2NCc2nc(-c3cccs3)no2)CC1"
  uom: "%"
  cytotoxicity at 10 µM: 10.8
- compound: "O=C(CCCn1cncn1)N1CCC2(CCCNC2=O)C1 (stereo unspecified)"
  uom: "%"
  cytotoxicity at 10 µM: -3.89
- compound: "CC(C)N1CCN(C(=O)c2ccc(Cn3ccccc3=O)o2)CC1"
  uom: "%"
  cytotoxicity at 10 µM: -13.1
- compound: "Cc1cnc(-c2nc(NC3CCCC3)ncc2-c2onc(C)c2C)cn1"
  uom: "%"
  cytotoxicity at 10 µM: -32.5
- compound: "NC(=O)c1cnn2c1NCC(CNCCc1cccs1)C2 (stereo unspecified)"
  uom: "%"
  cytotoxicity at 10 µM: -9.63
- compound: "CCn1c(C)cc(C(=O)N2CCCC(C(=O)c3nccn3C)C2)c1C (stereo unspecified)"
  uom: "%"
  cytotoxicity at 10 µM: 6.27
- compound: "CCNC(=O)CNC(=O)Nc1cccc(Cl)c1SC(F)F"
  uom: "%"
  cytotoxicity at 10 µM: -1.76
- compound: "OCC1CCCN1c1cc(NCCc2ccsc2)ncn1 (stereo unspecified)"
  uom: "%"
  cytotoxicity at 10 µM: 8.51
- compound: "O=S(=O)(c1cccs1)N1Cc2nc(COCC3CC3)oc2C1"
  uom: "%"
  cytotoxicity at 10 µM: -109
- compound: "Cc1cccc(CN(Cc2nc3c(cnn3C)c(=O)[nH]2)C2CC2)c1"
  uom: "%"
  cytotoxicity at 10 µM: 0.914
- compound: "CCOc1ccccc1C(CC(=O)Nc1ccccc1F)NC(C)=O (stereo unspecified)"
  uom: "%"
  cytotoxicity at 10 µM: -15.4
- compound: "O=C(CN1CCC(c2cccc(F)c2)C1)NCC(F)(F)F (stereo unspecified)"
  uom: "%"
  cytotoxicity at 10 µM: -10.4
- compound: "CC(C)[C@@H]1CN(C(=O)NCCc2ccccc2)C[C@H]1NS(=O)(=O)N(C)C"
  uom: "%"
  cytotoxicity at 10 µM: 3.08
- compound: "COc1cc(N2CCc3ncnc(-c4cnn(C)c4)c3CC2)ncn1"
  uom: "%"
  cytotoxicity at 10 µM: 8.46
- compound: "Cc1ccc(C)c(S(=O)(=O)N2CCN(C)C3(CCC(=O)N(C)CC3)C2)c1 (stereo unspecified)"
  uom: "%"
  cytotoxicity at 10 µM: 7.01
- compound: "CCC(=O)N1CCC2(COCc3cnc(N4CCOCC4)nc32)C1 (stereo unspecified)"
  uom: "%"
  cytotoxicity at 10 µM: -66.2
- compound: "Cc1noc(C)c1S(=O)(=O)N1CCC(Oc2cccnn2)CC1"
  uom: "%"
  cytotoxicity at 10 µM: 0.0701
- compound: "CCC[C@H]1CN(c2nc(CO)cs2)C[C@@H]1NC(=O)C1(COC)CC1"
  uom: "%"
  cytotoxicity at 10 µM: -2.87
